Target: T1, DHX36 (RHAU) (UniProt Q9H2U1 1-1008)
T1 sequence: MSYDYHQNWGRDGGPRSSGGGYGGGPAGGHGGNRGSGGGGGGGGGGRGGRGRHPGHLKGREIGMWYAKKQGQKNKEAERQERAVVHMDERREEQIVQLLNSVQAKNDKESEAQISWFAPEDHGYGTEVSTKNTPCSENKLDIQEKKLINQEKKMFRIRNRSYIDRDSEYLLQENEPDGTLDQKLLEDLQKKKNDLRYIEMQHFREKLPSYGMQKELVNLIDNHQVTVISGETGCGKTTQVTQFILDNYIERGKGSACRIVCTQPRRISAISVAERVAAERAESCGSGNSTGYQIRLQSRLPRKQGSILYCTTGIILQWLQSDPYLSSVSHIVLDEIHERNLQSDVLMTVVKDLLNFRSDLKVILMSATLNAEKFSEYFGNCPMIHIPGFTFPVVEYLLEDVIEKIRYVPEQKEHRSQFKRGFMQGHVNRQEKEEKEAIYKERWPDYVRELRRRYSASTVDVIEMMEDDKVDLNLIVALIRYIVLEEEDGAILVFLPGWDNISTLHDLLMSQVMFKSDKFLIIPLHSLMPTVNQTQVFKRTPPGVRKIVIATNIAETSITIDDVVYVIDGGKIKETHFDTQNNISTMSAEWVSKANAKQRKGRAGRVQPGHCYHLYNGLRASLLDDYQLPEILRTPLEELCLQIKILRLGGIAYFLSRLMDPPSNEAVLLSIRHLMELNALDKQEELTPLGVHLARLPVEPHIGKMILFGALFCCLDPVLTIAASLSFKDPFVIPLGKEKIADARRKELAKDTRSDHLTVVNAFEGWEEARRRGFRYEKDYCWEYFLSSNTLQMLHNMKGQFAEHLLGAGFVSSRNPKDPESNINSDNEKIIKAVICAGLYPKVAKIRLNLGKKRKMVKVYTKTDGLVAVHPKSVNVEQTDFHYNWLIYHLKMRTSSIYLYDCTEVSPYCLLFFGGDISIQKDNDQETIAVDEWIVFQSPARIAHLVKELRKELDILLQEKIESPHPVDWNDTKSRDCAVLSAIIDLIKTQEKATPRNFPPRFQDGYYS
Assay: MST
RESULT_TYPE: Kd (nM)
Numbers only, in nM.

Sample AGGGUGGGCUUUUGUUGAUGAGGGAGGGGA (structured_RNA) [MALAT1 rG4_04 (FAM)] ; Kd observed: 130
